Entry source: paper PMC11224357

# MIC measurements, system: Bacillus subtilis
metric_name: MIC (µg/mL)

{"columns": ["molecule", "metric_name", "obs_value"],
 "data": [
  ["CC1=C(C(=O)O)N2C(=O)[C@@H](NC(=O)[C@H](N)C3=CCC=CC3)[C@H]2SC1 [Cephradine, reference compound]", "MIC", 320],
  ["O=C(Nc1ccccc1)N1CCCC1 [Compound 19, N-phenylpyrrolidine-1-carboxamide]", "MIC", 80],
  ["Cc1ccc(NC(=O)N2CCCCC2)cc1 [Compound 17, N-(p-tolyl)piperidine-1-carboxamide]", "MIC", 10],
  ["O=C(Nc1ccccc1)N1CCCCC1 [Compound 22, N-phenylpiperidine-1-carboxamide]", "MIC", 10],
  ["Cc1ccc(NC(=O)N2CCOCC2)cc1 [Compound 15, N-(p-tolyl)morpholine-4-carboxamide]", "MIC", 40],
  ["Cc1ccc(NC(=O)N2CCN(C)CC2)cc1", "MIC", 160]
]}
